assay: Displacement of [3H]neurotensin from pig NTR1; set-up: species or system Sus scrofa
The substances listed here are annotated with their pKi.
Expect pKi as a plain number equal to -log10 of the molar concentration.

Previously resolved entries follow.
>>> measvalue("H-RRPYAIL-OH")
8.17
>>> measvalue("H-RRPYILA-OH")
9.57
>>> measvalue("H-RRAPYIL-OH")
8.02

# query: pKi of entry H-DRPYIL-OH
6.82

====

test: Displacement of [3H]neurotensin from pig NTR1; set-up: species or system Sus scrofa
Non-standard residues stand in square brackets, D forms with d. Residues, ends and D or L forms follow the SMILES beside them. Gly(N-4-hydroxybenzyl) = O=C(O)CNCc1ccc(O)cc1
property: Ki (µM)
Reply with just the number (in µM).

Previously resolved entries follow.
>>> measvalue("CC[C@@H](C)[C@H](NC(=O)[C@H](Cc1ccc(O)cc1)N1CC=CC[C@]2(CCCN2C(=O)[C@H](CCCNC(=N)N)NC(=O)[C@@H](N)CCCNC(=N)N)C1=O)C(=O)N[C@@H](CC(C)C)C(=O)O")
18
>>> measvalue("CC[C@H](C)[C@H](NC(=O)[C@H](Cc1ccc(O)cc1)NC(=O)C[C@@H]1CCCN1C(=O)[C@H](CCCNC(=N)N)NC(=O)[C@@H](N)CCCNC(=N)N)C(=O)N[C@@H](CC(C)C)C(=O)O")
0.028
>>> measvalue("CC[C@H](C)[C@H](NC(=O)[C@H](Cc1ccc(O)cc1)NC(=O)[C@@H]1CCCN1C(=O)[C@H](CCCNC(=N)N)NC(=O)CCC(=O)O)C(=O)N[C@@H](CC(C)C)C(=O)O")
2.3
>>> measvalue("CC[C@H](C)[C@H](NC(=O)[C@H](Cc1ccc(O)cc1)NC(=O)[C@@H]1CCCN1C(=O)[C@H](CCCNC(=N)N)NC(=O)C[N+](C)(C)C)C(=O)N[C@@H](CC(C)C)C(=O)O")
0.00065
>>> measvalue("CC[C@H](C)[C@H](NC(=O)[C@H](Cc1ccc(O)cc1)NC(=O)[C@@H]1CCCN1C(=O)[C@H](CCCCN)NC(=O)[C@@H](N)CCCCN)C(=O)N[C@@H](CC(C)C)C(=O)O")
0.0026
>>> measvalue("CC[C@H](C)[C@H](NC(=O)[C@H](Cc1ccc(O)cc1)NC(=O)[C@@H]1CCCN1C(=O)[C@H](CCCCN)NC(=O)CNCCCCN)C(=O)N[C@@H](CC(C)C)C(=O)O")
0.00045
>>> measvalue("CC[C@H](C)[C@H](NC(=O)[C@H](Cc1ccc(O)cc1)NC(=O)[C@@H]1CCCN1C(=O)CN(CCCCN)C(=O)[C@@H](N)CCCCN)C(=O)N[C@@H](CC(C)C)C(=O)O")
0.0057
>>> measvalue("CC[C@H](C)[C@H](NC(=O)[C@H](Cc1ccc(O)cc1)NC(=O)[C@@H]1CCCN1C(=O)[C@H](CCCNC(=N)N)NC(=O)[C@@H](N)CCCNC(=N)N)C(=O)N[C@@H](CC(C)C)C(N)=O")
0.00018
>>> measvalue("CC[C@H](C)[C@H](NC(=O)[C@H](Cc1ccc(O)cc1)N1C(=O)NC(=O)C2(CCCN2C(=O)[C@H](CCCNC(=N)N)NC(=O)[C@@H](N)CCCNC(=N)N)C1=O)C(=O)N[C@@H](CC(C)C)C(=O)O (single isomer, unassigned; diastereomer 1)")
1.4
>>> measvalue("CC[C@H](C)[C@H](NC(=O)[C@H](Cc1ccc(O)cc1)N1C(=O)NC(=O)C2(CCCN2C(=O)[C@H](CCCNC(=N)N)NC(=O)[C@@H](N)CCCNC(=N)N)C1=O)C(=O)N[C@@H](CC(C)C)C(=O)O (some centres not stated)")
10

# query: Ki of entry CC[C@H](C)[C@H](NC(=O)[C@H](Cc1ccc(O)cc1)N1CC=C[C@]2(CCCN2C(=O)[C@H](CCCNC(=N)N)NC(=O)[C@@H](N)CCCNC(=N)N)C1=O)C(=O)N[C@@H](CC(C)C)C(=O)O
7.4

Same lookup for CC[C@H](C)[C@H](NC(=O)CN(Cc1ccc(O)cc1)C(=O)[C@@H]1CCCN1C(=O)[C@H](CCCCN)NC(=O)[C@@H](N)CCCCN)C(=O)N[C@@H](CC(C)C)C(=O)O (H-KKP[Gly(N-4-hydroxybenzyl)]IL-OH) , please.
11
